molecular target: T1, Soluble IGF-1R (R&D Systems, Cat. # 391-GR) (UniProt P08069 31-935, limits assumed); assay: phage ELISA ratios compared
T1 construct: extracellular domain; bought; also called sIGF-1R
readout: IGF-1R/IR ratio comparison
Respond with the number and no other words.

Input: Entry RGAVAGFHDQFYDWFDRQVSRVHKFG [H2CA-4-H9-IGFR] has what IGF-1R/IR ratio comparison?
Output: 3

Input: Name the recorded IGF-1R/IR ratio comparison for LRIANLFYQRLWDLAFGGGG [20E2B-3-E8-IGFR] .
Output: 11.1

Input: # IGF-1R/IR ratio comparison lookup, item EGSGFYGYFFSLLGLQG [NNRPγ-4-A9-IR]
Output: 7.1

Input: Reported IGF-1R/IR ratio comparison for SSYGCDGFYLMLFSLGLVASQELEC [20C-3-A1-IGFR] : what is it?
Output: 13.7

Input: Reported IGF-1R/IR ratio comparison for VNQSGSIHENFYDWFERQVSHQRGVR [H2CA-4-F10-IGFR] : what is it?
Output: 5.9

Input: Reported IGF-1R/IR ratio comparison, binder KLHNLMFYYGLQRLVWGAGLG [20E2B-4-H3-IGFR] : ____
Output: 13.9

***
Input: Data request, read-out IGF-1R/IR ratio comparison, for QGGSASFYDAIDRLLRMRIGG [20E2A-4-F11-IGFR]
Output: 14.6

Hey, just so you know, these numbers are from patent US6875741.
